Recorded pIC50 values for a group of molecules are listed next.
- Tested on: HCT-8
- experiment: Cytotoxicity against taxol-resistant human HCT8 cells by MTT assay
- Format: functional, cell-based
For clarity, pIC50 is expressed as the negative log10 of concentration in mol/L.

# given smiles, pIC50
measured = [
    ("CCC(=O)Oc1cc(/C=C/C(=O)c2ccc(OC)c3c2OC(C)(C)C=C3)ccc1OC", 5.77),
]

Exam item: Find the recorded pIC50 belonging to CCCCC(=O)Oc1cc(/C=C/C(=O)c2ccc(OC)c3c2OC(C)(C)C=C3)ccc1OC and report it.
Marked response: 5.64

Exam item: Find the recorded pIC50 belonging to CC(=O)O[C@H]1C(=O)[C@@]2(C)[C@H]([C@H](OC(=O)c3ccccc3)[C@]3(O)C[C@H](OC(=O)[C@H](O)[C@@H](NC(=O)c4ccccc4)c4ccccc4)C(C)=C1C3(C)C)[C@]1(OC(C)=O)CO[C@@H]1C[C@@H]2O and report it.
Marked response: 4.88

Exam item: Find the recorded pIC50 belonging to COc1cc2c(c(OC)c1OC)-c1ccc(OC)c(=O)cc1[C@@H](NC(C)=O)CC2 and report it.
Marked response: 4.93
